Settings: in vitro; compared to A43D (A43D compared to bevirimat)
Test readout: microsomal / metabolic stability in words

Structure as smiles	Reading
C=C(C)[C@@H]1CC[C@]2(C(=O)NCCCCCCCNC(C)=O)CC[C@]3(C)[C@H](CC[C@@H]4[C@@]5(C)CC[C@H](O)C(C)(C)[C@@H]5CC[C@]43C)[C@@H]12	poor

These entries and their values trace back to paper PMC3426442.
